# Test system: OVCAR-5
# PROCEDURE_TEXT: NCI tumour cell line growth inhibition, 48 h
Active and inactive are the calls of the source. Cut-off read from the data, not from the text of the source: active = GI50 up to about 1.1 µM and inactive = higher.
Entries and their GI50

Solved entries:
>>> result("CC(=O)OCCc1cccnc1/C=N/O")
"> 100 µM (inactive)"
>>> result("COc1cccc(NC(=O)CC(=O)NN)c1")
"> 100 µM (inactive)"
>>> result("C=C1C(=O)O[C@@H]2C(=O)[C@@H](C)[C@@H]3C=CC(=O)[C@@]3(C)[C@@H](OC(=O)/C(C)=C\\C)[C@H]12 [MULTISTATIN]")
"2.22 µM (inactive)"
>>> result("O=C1c2ccccc2NC(c2cc(Cl)cc(Cl)c2O)N1CCc1ccccn1 (configuration not stated)")
"> 100 µM (inactive)"
>>> result("O=C(O)C1CCCN1Cc1cc2ccccc2c2ccccc12 (configuration not stated)")
"> 100 µM (inactive)"

Read the next record carefully.
# GI50 (compound: COc1ccc2c(C)cc(=O)oc2c1OC ) is > 100 µM (inactive)
